B1: TPR t1 (parent)
chain: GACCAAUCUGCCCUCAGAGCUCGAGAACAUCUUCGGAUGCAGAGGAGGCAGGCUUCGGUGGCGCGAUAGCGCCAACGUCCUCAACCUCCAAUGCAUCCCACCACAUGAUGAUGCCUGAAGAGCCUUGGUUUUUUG

- Variants of: B1
- experiment_notes: polymerase ribozyme fitness, log enrichment relative to wild type (log ratio); higher = more active; in vitro selection for triplet polymerase activity
outcome_measure: polymerase ribozyme fitness (log ratio)
// no unit, no text: just the number

In: Tell us which polymerase ribozyme fitness (log ratio) value is on record for C8U C53G
Out: -0.0198

In: Tell us which polymerase ribozyme fitness (log ratio) value is on record for C53A C70U C115A A118U
Out: -1.34

In: Tell us which polymerase ribozyme fitness (log ratio) value is on record for C12U G42C C72U
Out: -1.28

In: Tell us which polymerase ribozyme fitness (log ratio) value is on record for C13G C56U
Out: -1.58

In: Tell us which polymerase ribozyme fitness (log ratio) value is on record for G71A U81G A83U C124A
Out: -7.19

In: Tell us which polymerase ribozyme fitness (log ratio) value is on record for G44A U87G U129G
Out: -1.42

In: Tell us which polymerase ribozyme fitness (log ratio) value is on record for A103U G120C C124U
Out: -4.96

In: Tell us which polymerase ribozyme fitness (log ratio) value is on record for G45U A111U
Out: -4.37

In: Tell us which polymerase ribozyme fitness (log ratio) value is on record for C49A C73A C89U A105U
Out: -3.83

In: Tell us which polymerase ribozyme fitness (log ratio) value is on record for A41U U92A
Out: -0.903

In: Tell us which polymerase ribozyme fitness (log ratio) value is on record for C28A C73A
Out: -4.02

In: Tell us which polymerase ribozyme fitness (log ratio) value is on record for U81A C94U G117A C123G
Out: -5.66

In: Tell us which polymerase ribozyme fitness (log ratio) value is on record for G63U U87A C114A
Out: -3.29

In: Tell us which polymerase ribozyme fitness (log ratio) value is on record for C99U G128A U129A
Out: -5.76

In: Tell us which polymerase ribozyme fitness (log ratio) value is on record for C34U U78A
Out: -4.78

In: Tell us which polymerase ribozyme fitness (log ratio) value is on record for C86G A108G U130A
Out: -3.28
